The compounds listed here are annotated with their GI50.
system: M14; experiment: NCI tumour cell line growth inhibition, 48 h
Calls of active or inactive are those of the source. No stated cut-off is given here; in the data, active = GI50 up to about 1.1 µM and inactive = higher.

{"columns": ["compound", "system name", "GI50"],
 "data": [
  ["CCCCc1c2c(nc3c1CCC/C3=C\\c1ccccc1)C(=O)C(CN(C)C)CC2 (stereo unspecified)", "M14", "17.4 µM (inactive)"],
  ["Cc1cc(C)c(NC(=O)/C=C/c2ccccc2)c(C)c1", "M14", "> 100 µM (inactive)"],
  ["n1onc2c1NC1Nc3nonc3NC1N2 (stereo unspecified)", "M14", "> 100 µM (inactive)"],
  ["N#CCCN(c1ccc(/C=N/c2cccc([N+](=O)[O-])c2)cc1)S(=O)(=O)c1ccccc1", "M14", "> 100 µM (inactive)"],
  ["CCCCCCCCCCn1cccc1/C=C/c1ccc(/C=C/c2cccn2CCCCCCCCCC)cc1", "M14", "> 100 µM (inactive)"],
  ["O=C(N[C@H]1c2ccsc2/C(=N/O)[C@H]1O)C(F)(F)F", "M14", "> 100 µM (inactive)"],
  ["CC(C)S(=O)(=O)n1c(N)nc2ccc(/C(=N/O)c3ccccc3)cc21", "M14", "17.9 µM (inactive)"],
  ["CC(=O)Nc1sc(Br)cc1S(=O)(=O)c1ccc(Cl)cc1", "M14", "15.2 µM (inactive)"],
  ["N#Cc1c(-c2cccc(Cl)c2)cc(-c2ccc(Cl)cc2)nc1N", "M14", "19.1 µM (inactive)"],
  ["COC(=O)C1CC2(CC3=C1CCCC3)OCCO2 (stereo unspecified)", "M14", "> 100 µM (inactive)"],
  ["Cc1ccc(N(C)S(=O)(=O)c2ccccc2[N+](=O)[O-])cc1", "M14", "21.6 µM (inactive)"]
]}

====

tested on: T47D; assay: NCI tumour cell line growth inhibition, 48 h
Calls of active or inactive are those of the source. Cut-off read from the data, not from the text of the source: active = GI50 up to about 1.1 µM and inactive = higher.
The compounds listed here are annotated with their GI50.

{"columns": ["compound", "GI50"],
 "data": [
  ["COc1ccc2c(n1)Sc1nc3ccccc3nc1N2", "> 100 µM (inactive)"],
  ["O=C(O)c1ccc(N/C(=C(/C(Cl)=C(Cl)Cl)[N+](=O)[O-])n2nnc3ccccc32)cc1", "> 100 µM (inactive)"],
  ["CC(C)NC(=O)OCc1c(COC(=O)NC(C)C)c(-c2cc[n+](COC(=O)C(C)(C)C)cc2)n2c1CCC2", "> 100 µM (inactive)"],
  ["n1onc2c1NC1Nc3nonc3NC1N2 (configuration not stated)", "> 100 µM (inactive)"],
  ["Cc1ccc(S(=O)(=O)OC2=C/C(=N\\c3onc(C)c3C)c3ccccc3C2=O)cc1", "24.2 µM (inactive)"],
  ["O=c1[nH]c2ccccc2c(=O)n1/N=C/c1ccc(O)cc1", "> 100 µM (inactive)"],
  ["O=c1[nH]nc(Cc2ccccc2)n1/N=C/c1ccncc1", "> 100 µM (inactive)"],
  ["CC(C)(C)OC(=O)N/N=C(/N)c1ccccc1", "> 100 µM (inactive)"],
  ["C=CC1(c2ccc3ccccc3c2)OCC(CC)O1 (configuration not stated)", "35 µM (inactive)"],
  ["N#Cc1ncn(-c2ccccc2)c1N", "> 100 µM (inactive)"],
  ["CCCCc1c2c(nc3c1CCC/C3=C\\c1ccccc1)C(=O)C(CN(C)C)CC2 (configuration not stated)", "3.61 µM (inactive)"],
  ["Oc1ccccc1CNCc1ccccc1O", "> 100 µM (inactive)"]
]}

====

tested on: SNB-19; assay: NCI tumour cell line growth inhibition, 48 h
Calls of active or inactive are those of the source. Cut-off read from the data, not from the text of the source: active = GI50 up to about 1.1 µM and inactive = higher.

{"columns": ["compound", "GI50"],
 "data": [
  ["COc1cc2cc(C(=O)N3CC(CCl)c4ccc([N+](=O)[O-])cc43)[nH]c2c(OC)c1OC (stereo not given)", "> 100 µM (inactive)"],
  ["COC(=O)C1=C(C(=O)OC)C23CC4CCC2(C(=O)C1O3)C4(C)C (stereo not given)", "> 100 µM (inactive)"],
  ["CCCCC1Cc2cc(OC)ccc2-c2nc3cc(OC)ccc3n21.CCCCC1Cc2cc(OC)ccc2-c2nc3ccc(OC)cc3n21 (stereo not given)", "9.73 µM (inactive)"],
  ["NCc1cc(O)c(O)c(O)c1", "> 100 µM (inactive)"],
  ["CC(O)C1OC(n2ccc(=O)[nH]c2=O)CC1n1cncn1 (stereo not given)", "> 100 µM (inactive)"],
  ["CN(C)/N=N/c1c[nH]nc1C(N)=O", "> 100 µM (inactive)"],
  ["O=C(N[C@H]1c2ccsc2/C(=N/O)[C@H]1O)C(F)(F)F", "> 100 µM (inactive)"],
  ["O=C(NC(=O)c1ccccc1)OC(c1ccccc1)C1CO1 (stereo not given)", "> 100 µM (inactive)"],
  ["N#Cc1c2c(c(N=P(c3ccccc3)(c3ccccc3)c3ccccc3)n3c1nc1ccccc13)CCCC2", "11.9 µM (inactive)"],
  ["Nc1c(S(=O)(=O)O)cc(S(=O)(=O)O)c2ccc(/N=N/c3ccccc3)c(O)c12", "> 100 µM (inactive)"]
]}

====

tested on: DMS-114; assay: NCI tumour cell line growth inhibition, 48 h
Counter-ions that a name gives are not always drawn. Calls of active or inactive are those of the source. No stated cut-off is given here; in the data, active = GI50 up to about 1.1 µM and inactive = higher. Starred links: 1 amine or outer side, 2 acyl side, 3 side chain; linkers in the order of their positions; H or OH if unused. Non-standard residues stand in square brackets, D forms with d. Residues, ends and D or L forms follow the SMILES beside them. ξ: configuration not given here. Ile(3ξ) = CCC(C)[C@H](N)C(=O)O; X35 = C=CCC(O[*:1])C(=O)[*:2]; NMeV = CN[C@H](C(=O)O)C(C)C; NMeA = CN[C@@H](C)C(=O)O; βAla = NCCC(=O)O
measured property: GI50

{"columns": ["compound", "result"],
 "data": [
  ["C[C@]12CC[C@H](O)CC1=CC[C@@H]1C2CC[C@]2(C)Nc3c(cnn3-c3ccccc3)CC12 (stereo partly specified)", "2.82 µM (inactive)"],
  ["COc1ccc(C=C(c2ccc(OCc3ccccc3)cc2)c2ccc(OCc3ccccc3)cc2)cc1", "> 100 µM (inactive)"],
  ["O=C(/C=C\\c1cccc2ccccc12)c1cccc2ccccc12", "5.51 µM (inactive)"],
  ["Cc1ccc(NC(=O)C(=O)CC(=O)c2c(C)[n+]([O-])c3ccccc3[n+]2[O-])cc1", "18.2 µM (inactive)"],
  ["CCN(CC)CCNC(=O)c1nn(C)c(=S)[nH]c1=S", "> 100 µM (inactive)"],
  ["N#CC1(N2CCCC2)CCC2(CC1)OCCO2", "> 100 µM (inactive)"],
  ["O=C1C2=C(C(c3ccccc3)=C1c1ccccc1)c1ccccc1C1(c3ccccc3)C2=C(O)C(c2ccccc2)=C1c1ccccc1 (stereo unspecified)", "> 100 µM (inactive)"],
  ["CN(C)CC/C(=N\\Nc1ccc([N+](=O)[O-])cc1)c1ccccc1", "5.14 µM (inactive)"],
  ["CC(=O)OC1CC2C(C)(C)C(=O)C=C[C@]2(C)C2CCC3(C)C(=CCC3[C@H](CO)C[C@H](O)C(=O)C(C)(C)O)[C@]12C (stereo partly specified)", "33.9 µM (inactive)"],
  ["CN(C)c1nc(Oc2nc(N(C)C)nc(N(C)C)n2)nc(N(C)C)n1", "51.4 µM (inactive)"],
  ["CCc1ccc(Cc2ccc(CC)c(NC(=O)C(=O)Cc3nc4ccccc4nc3C)c2CC)c(CC)c1NC(=O)C(=O)Cc1nc2ccccc2nc1C", "47.5 µM (inactive)"],
  ["COc1ccc(Nc2nc3cc(C(F)(F)F)ccc3nc2-c2ccccc2)cc1OC", "10.3 µM (inactive)"],
  ["O=c1cc2n(c(=O)[nH]1)C1OC(C(O)C1O)[C@@H]2CCO (stereo partly specified)", "> 100 µM (inactive)"],
  ["NCc1cc(O)c(O)c(O)c1", "> 100 µM (inactive)"],
  ["CC1=NCCc2c1[nH]c1cc(O)ccc21 [HARMALOL HYDROCHLORIDE]", "> 100 µM (inactive)"],
  ["CCOC(=O)C(Cc1ccccc1)NC(=O)c1nc[nH]c1/N=N/N(C)C (stereo unspecified)", "> 100 µM (inactive)"],
  ["COc1cc(/C=C/C(=O)c2sc(NNC(C)=O)nc2C)ccc1O", "> 100 µM (inactive)"],
  ["CCOC1=C2N=C(Cc3ccccc3F)N=C2C(=O)c2ccccc21", "> 100 µM (inactive)"],
  ["C=CCC1OC(=O)CCNC(=O)[C@H](C)N(C)C(=O)[C@H](C(C)C)N(C)C(=O)[C@H](C(C)CC)NC(=O)[C@@H]2CCCN2C1=O (stereo partly specified) (cyclo([Ile(3ξ)][NMeV][NMeA][βAla][X35]P))", "7.5 µM (inactive)"],
  ["CC1=N/C(=C\\c2ccc([N+](=O)[O-])cc2)C(=O)O1", "> 100 µM (inactive)"],
  ["O=C1[C@H]2ON(c3ccccc3)C(c3cccc([N+](=O)[O-])c3)[C@H]2C(=O)N1c1ccc(Cc2ccc(N3C(=O)[C@@H]4ON(c5ccccc5)C(c5cccc([N+](=O)[O-])c5)[C@@H]4C3=O)cc2)cc1 (stereo partly specified)", "> 100 µM (inactive)"],
  ["COC(=O)C1=C(C(=O)OC)C2(CCCCCC2=O)OC1=O (stereo unspecified)", "> 100 µM (inactive)"],
  ["COc1ccc(C(O)/C(=N\\NC(N)=S)c2nc3ccc([N+](=O)[O-])cc3nc2O)cc1OC (stereo unspecified)", "53.1 µM (inactive)"],
  ["O=C(O)C12C3CCCC1C2CC3 (stereo unspecified)", "> 100 µM (inactive)"],
  ["CC1=Nn2c(nnc2-c2ccc(N)cc2)NC(C)(C)C1", "> 100 µM (inactive)"],
  ["CCN(CC)c1ccc(/N=C2\\C=C(Cl)C(=O)c3ncccc32)c(C)c1", "2.67 µM (inactive)"]
]}
